Provide the recorded pIC50 for the entries that follow.
# target.or.system: EGFR (D746-750/C797S) (Homo sapiens, UniProt P00533, C797S/DEL746-750)
# Sequence (P00533 with tags, fused parts or gaps DEL746-750/C797S): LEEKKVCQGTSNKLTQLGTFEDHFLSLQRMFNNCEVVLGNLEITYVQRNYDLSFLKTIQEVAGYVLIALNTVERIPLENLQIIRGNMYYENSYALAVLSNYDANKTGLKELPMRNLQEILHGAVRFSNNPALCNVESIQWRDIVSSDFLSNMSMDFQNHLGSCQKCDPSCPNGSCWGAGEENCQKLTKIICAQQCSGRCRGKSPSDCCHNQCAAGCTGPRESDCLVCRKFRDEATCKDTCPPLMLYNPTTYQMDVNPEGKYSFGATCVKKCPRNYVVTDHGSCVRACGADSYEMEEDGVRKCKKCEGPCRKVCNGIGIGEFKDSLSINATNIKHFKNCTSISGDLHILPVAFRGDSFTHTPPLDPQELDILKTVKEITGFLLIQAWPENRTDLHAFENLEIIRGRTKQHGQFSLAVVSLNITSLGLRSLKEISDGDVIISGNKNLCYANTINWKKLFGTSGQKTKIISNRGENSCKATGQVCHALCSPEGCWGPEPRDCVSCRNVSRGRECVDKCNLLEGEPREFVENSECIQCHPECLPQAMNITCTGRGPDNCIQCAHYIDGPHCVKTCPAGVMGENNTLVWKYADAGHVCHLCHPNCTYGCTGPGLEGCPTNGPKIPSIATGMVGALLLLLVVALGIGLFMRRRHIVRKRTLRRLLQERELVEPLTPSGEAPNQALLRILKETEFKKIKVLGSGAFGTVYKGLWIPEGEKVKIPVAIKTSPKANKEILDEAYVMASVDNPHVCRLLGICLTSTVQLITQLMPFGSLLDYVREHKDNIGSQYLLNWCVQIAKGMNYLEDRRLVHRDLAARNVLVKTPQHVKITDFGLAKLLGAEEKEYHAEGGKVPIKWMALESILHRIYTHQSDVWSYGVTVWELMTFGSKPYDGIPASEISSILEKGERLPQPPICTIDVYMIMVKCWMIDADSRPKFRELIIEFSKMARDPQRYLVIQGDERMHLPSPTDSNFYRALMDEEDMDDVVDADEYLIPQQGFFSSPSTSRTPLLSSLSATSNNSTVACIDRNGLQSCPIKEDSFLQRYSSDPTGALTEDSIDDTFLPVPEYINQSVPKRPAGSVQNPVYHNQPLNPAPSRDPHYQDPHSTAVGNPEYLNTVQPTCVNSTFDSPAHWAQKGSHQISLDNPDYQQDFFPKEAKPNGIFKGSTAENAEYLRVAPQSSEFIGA
# assay.comment: HotSpot radiometric kinase assay, inhibition of EGFR 746-750/C797S mutant
# Type: biochemical
# measurement.context: 33P ATP, room temperature, 120 m
In simple prose, pIC50 is minus the logarithm base ten of a concentration in moles per litre.

Problem: Suppose we examine the molecule Cc1nn(C)c2c1-c1cc3c(n[nH]c3cn1)/C=C/c1c(OCC#N)nn([C@@H](C)CO)c1CN(C)C[C@H](C)O2 ; what pIC50 value has been reported?
Solution: 8.95

Problem: Suppose we examine the molecule CCOc1nn(CCO)c2c1/C=C/c1n[nH]c3c(C)nc(cc13)-c1c(C)nn(C)c1O[C@@H](C)CN(C)C2 ; what pIC50 value has been reported?
Solution: 9.57

Problem: Suppose we examine the molecule Cc1nn(C)c2c1-c1cc3c(n[nH]c3cn1)/C=C/c1c(OCC#N)nn(CCO)c1CN(C)C[C@@H](C)O2 ; what pIC50 value has been reported?
Solution: 9.08

Problem: Suppose we examine the molecule CCOc1nn(CCO)c2c1/C=C/c1n[nH]c3cnc(cc13)-c1cnn(C)c1O[C@@H](C)CN(C1CC1)C2 ; what pIC50 value has been reported?
Solution: 9.31

Problem: Suppose we examine the molecule CCOc1nn([C@@H](C)CO)c2c1/C=C/c1n[nH]c3c(C)nc(cc13)-c1c(C)nn(C)c1O[C@@H](C)CN(C)C2 ; what pIC50 value has been reported?
Solution: 9.32

Problem: Suppose we examine the molecule Cc1nn(C)c2c1-c1cc3c(n[nH]c3cn1)/C=C/c1c(OCC#N)nn([C@@H](C)CO)c1CN(C)CCO2 ; what pIC50 value has been reported?
Solution: 9.16

Problem: Suppose we examine the molecule Cc1nn(CCO)c2c1/C=C/c1n[nH]c3cnc(cc13)-c1c(C)nn(C)c1O[C@H](C)CN(C(C)C)C2 ; what pIC50 value has been reported?
Solution: 9.01

Problem: Suppose we examine the molecule CCOc1nn(CCO)c2c1/C=C/c1n[nH]c3cnc(cc13)-c1c(C)nn(C)c1OC[C@H]1CCCN1C2 ; what pIC50 value has been reported?
Solution: 9.07

Problem: Suppose we examine the molecule CCN1Cc2c(c(OC(C)C)nn2CCO)/C=C/c2n[nH]c3cnc(cc23)-c2cnn(C)c2O[C@H](C)C1 ; what pIC50 value has been reported?
Solution: 9.57

Problem: Suppose we examine the molecule CCOc1nn([C@@H](C)CO)c2c1/C=C/c1n[nH]c3c(C)nc(cc13)-c1c(C)nn(C)c1O[C@H](C)[C@H]1CCCN1C2 ; what pIC50 value has been reported?
Solution: 9.68

Problem: Suppose we examine the molecule CCOc1nn([C@@H](C)CO)c2c1/C=C/c1n[nH]c3cnc(cc13)-c1c(C)nn(C)c1O[C@H](C)CN(CC)C2 ; what pIC50 value has been reported?
Solution: 8.97

Problem: Suppose we examine the molecule CCOc1nn(CCO)c2c1/C=C/c1n[nH]c3c(C)nc(cc13)-c1cnn(C)c1O[C@H](C)CN(C)C2 ; what pIC50 value has been reported?
Solution: 9.27

Problem: Suppose we examine the molecule CCN1Cc2c(c(OCC#N)nn2[C@@H](C)CO)/C=C/c2n[nH]c3cnc(cc23)-c2c(C)nn(C)c2O[C@H](C)C1 ; what pIC50 value has been reported?
Solution: 8.86

Problem: Suppose we examine the molecule CCOc1nn(CCO)c2c1/C=C/c1n[nH]c3cnc(cc13)-c1c(C)nn(C)c1OC[C@@H](C)N(CC)C2 ; what pIC50 value has been reported?
Solution: 8.88

----------
# target.or.system: pEGFR, A431 cells (wildtype EGFR) (Homo sapiens, UniProt P00533)
# Construct: pEGFR (Tyr1068) TR-FRET
# Sequence (P00533 25-1210): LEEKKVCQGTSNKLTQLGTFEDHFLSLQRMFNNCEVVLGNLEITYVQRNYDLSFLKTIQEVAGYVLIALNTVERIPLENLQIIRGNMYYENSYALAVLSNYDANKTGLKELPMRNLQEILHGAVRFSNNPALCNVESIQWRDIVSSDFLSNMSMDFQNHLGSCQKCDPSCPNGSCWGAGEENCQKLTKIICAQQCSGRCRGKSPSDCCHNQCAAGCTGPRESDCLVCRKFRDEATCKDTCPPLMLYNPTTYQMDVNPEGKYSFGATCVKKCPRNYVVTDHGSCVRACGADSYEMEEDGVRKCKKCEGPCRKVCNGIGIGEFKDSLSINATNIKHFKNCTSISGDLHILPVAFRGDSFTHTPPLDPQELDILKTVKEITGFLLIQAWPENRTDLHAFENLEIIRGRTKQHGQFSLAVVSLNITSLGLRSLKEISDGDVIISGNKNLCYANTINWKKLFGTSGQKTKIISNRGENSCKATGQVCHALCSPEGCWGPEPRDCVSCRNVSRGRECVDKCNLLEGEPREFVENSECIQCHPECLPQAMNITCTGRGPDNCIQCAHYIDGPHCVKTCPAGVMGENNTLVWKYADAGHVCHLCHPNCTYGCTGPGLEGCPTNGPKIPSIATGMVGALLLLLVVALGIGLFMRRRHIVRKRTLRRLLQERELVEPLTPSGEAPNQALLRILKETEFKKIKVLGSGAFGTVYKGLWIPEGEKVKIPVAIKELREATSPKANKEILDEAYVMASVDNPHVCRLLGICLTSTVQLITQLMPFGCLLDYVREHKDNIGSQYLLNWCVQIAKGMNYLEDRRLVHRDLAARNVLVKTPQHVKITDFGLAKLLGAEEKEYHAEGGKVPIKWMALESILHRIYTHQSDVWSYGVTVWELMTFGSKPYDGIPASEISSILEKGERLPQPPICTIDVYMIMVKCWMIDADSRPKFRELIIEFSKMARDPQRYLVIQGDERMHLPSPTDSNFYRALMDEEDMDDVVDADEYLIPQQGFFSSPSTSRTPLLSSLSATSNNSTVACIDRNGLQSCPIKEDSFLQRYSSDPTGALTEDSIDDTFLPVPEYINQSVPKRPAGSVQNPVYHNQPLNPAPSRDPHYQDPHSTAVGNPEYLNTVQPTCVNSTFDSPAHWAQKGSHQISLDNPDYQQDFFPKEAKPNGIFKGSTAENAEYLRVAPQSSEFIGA
# assay.comment: Cellular EGFR phosphorylation assay (LANCE Ultra TR-FRET) in A431 cells
# Assay type: cell-based
# measurement.context: read-out: A431 pEGFR IC50, 4 hours at 37° C., 40 ng/mL EGF for the final 10 minutes
# Method: Cellular EGFR Phosphorylation Assays EGFR phosphorylation assays were conducted in NSCLC cells with EGFR activation mutations. […] EGFR phosphorylation was measured using phospho-EGFR (Try1068) LANCE Ultra TR-FRET Detection Kit (TRF4015M) from PerkinElmer according to manufacturer's instructions. […] After 4-6 hours of incubation at room temperature, plates were then read on a TECAN Sparks multimode microplate reader. […]
reported.metric: pIC50
In simple prose, pIC50 is minus the logarithm base ten of a concentration in moles per litre.

Problem: Suppose we examine the compound CCNc1nn([C@@H](C)CO)c2c1/C=C/c1n[nH]c3c(C)nc(cc13)-c1c(C)nn(C)c1O[C@@H](C)CN(C)C2 ; what pIC50 value has been reported?
Solution: 7.75

----------
# target.or.system: EGFR (L858R/T790M/C797S) (Homo sapiens, UniProt P00533, C797S/L858R/T790M)
# Sequence (P00533 25-1210 T790M/C797S/L858R): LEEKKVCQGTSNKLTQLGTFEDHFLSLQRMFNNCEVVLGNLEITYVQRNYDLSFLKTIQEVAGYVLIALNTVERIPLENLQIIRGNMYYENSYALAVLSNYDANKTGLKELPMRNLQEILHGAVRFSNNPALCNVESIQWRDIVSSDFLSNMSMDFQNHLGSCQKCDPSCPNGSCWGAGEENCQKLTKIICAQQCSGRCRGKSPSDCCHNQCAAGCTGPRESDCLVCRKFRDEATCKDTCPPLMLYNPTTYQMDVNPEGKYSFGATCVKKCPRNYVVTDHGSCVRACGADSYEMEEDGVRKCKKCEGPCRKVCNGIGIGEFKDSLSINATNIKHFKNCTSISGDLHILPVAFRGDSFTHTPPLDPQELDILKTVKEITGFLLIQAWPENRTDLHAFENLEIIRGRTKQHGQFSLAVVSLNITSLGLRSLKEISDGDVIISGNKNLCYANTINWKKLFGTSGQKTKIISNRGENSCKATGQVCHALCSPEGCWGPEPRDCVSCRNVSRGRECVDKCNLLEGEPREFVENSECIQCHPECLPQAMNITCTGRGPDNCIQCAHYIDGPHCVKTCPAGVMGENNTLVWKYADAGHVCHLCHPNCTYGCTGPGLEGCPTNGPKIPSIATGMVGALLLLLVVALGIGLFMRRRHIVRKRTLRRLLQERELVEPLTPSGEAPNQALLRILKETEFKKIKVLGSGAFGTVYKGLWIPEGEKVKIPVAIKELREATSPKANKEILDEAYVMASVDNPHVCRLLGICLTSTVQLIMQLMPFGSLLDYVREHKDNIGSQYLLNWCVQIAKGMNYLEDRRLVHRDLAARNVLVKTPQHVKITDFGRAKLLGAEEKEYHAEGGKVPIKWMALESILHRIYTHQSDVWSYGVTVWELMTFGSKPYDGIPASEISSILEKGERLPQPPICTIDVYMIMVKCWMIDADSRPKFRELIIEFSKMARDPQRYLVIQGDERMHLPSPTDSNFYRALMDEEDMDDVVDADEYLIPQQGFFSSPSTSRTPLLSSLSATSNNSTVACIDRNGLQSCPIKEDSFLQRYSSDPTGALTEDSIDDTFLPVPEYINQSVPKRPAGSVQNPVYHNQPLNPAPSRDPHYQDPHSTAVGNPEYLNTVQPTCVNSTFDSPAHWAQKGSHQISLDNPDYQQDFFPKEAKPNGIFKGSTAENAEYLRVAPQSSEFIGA
# assay.comment: HotSpot radiometric kinase assay, inhibition of EGFR L858R/T790M/C797S mutant
# measurement.context: 33P ATP, room temperature, 120 m
reported.metric: pIC50
In simple prose, pIC50 is minus the logarithm base ten of a concentration in moles per litre.

Problem: Suppose we examine the compound CCN1Cc2c(c(OC(C)C)nn2CCO)/C=C/c2n[nH]c3cnc(cc23)-c2cnn(C)c2O[C@H](C)C1 [Ex. 10] ; what pIC50 value has been reported?
Solution: 9.29

Problem: Suppose we examine the compound CCc1nn(CCO)c2c1/C=C/c1n[nH]c3cnc(cc13)-c1c(C)nn(C)c1O[C@@H](C)CN(C)C2 [Ex. 60] ; what pIC50 value has been reported?
Solution: 9.07

Problem: Suppose we examine the compound Cc1nn(C)c2c1-c1cc3c(n[nH]c3c(C)n1)/C=C/c1c(OCC#N)nn([C@@H](C)CO)c1CN(C)C[C@H](C)O2 [Ex. 52] ; what pIC50 value has been reported?
Solution: 9.34

Problem: Suppose we examine the compound CCOc1nn(CCO)c2c1/C=C/c1n[nH]c3cnc(cc13)-c1c(C)nn(C)c1OC[C@H](C)N(C(C)C)C2 [Ex. 2] ; what pIC50 value has been reported?
Solution: 9.10

Problem: Suppose we examine the compound Cc1nn(C)c2c1-c1cc3c(n[nH]c3cn1)/C=C/c1c(OCC#N)nn(CCO)c1CN1CCC[C@@H]1C(C)O2 (single isomer, unassigned) [Ex. 50] ; what pIC50 value has been reported?
Solution: 9.41

Problem: Suppose we examine the compound Cc1nn(CCO)c2c1/C=C/c1n[nH]c3cnc(cc13)-c1c(C)nn(C)c1O[C@H](C)CN(C(C)C)C2 [Ex. 20] ; what pIC50 value has been reported?
Solution: 8.59

Problem: Suppose we examine the compound CCOc1nn([C@@H](C)CO)c2c1/C=C/c1n[nH]c3cnc(cc13)-c1c(C)nn(C)c1OCCN(C)C2 [Ex. 59] ; what pIC50 value has been reported?
Solution: 9.00

Problem: Suppose we examine the compound Cc1nn([C@@H](C)CO)c2c1/C=C/c1n[nH]c3cnc(cc13)-c1c(C)nn(C)c1O[C@@H](C)CN(C)C2 [Ex. 46] ; what pIC50 value has been reported?
Solution: 9.64

Problem: Suppose we examine the compound CCOc1nn(CCO)c2c1/C=C/c1n[nH]c3cnc(cc13)-c1c(C)nn(C)c1OCCN(C)C2 [Ex. 68] ; what pIC50 value has been reported?
Solution: 9.36

Problem: Suppose we examine the compound CCOc1nn(CCO)c2c1/C=C/c1n[nH]c3c(C)nc(cc13)-c1cnn(C)c1O[C@@H](C)CN(C)C2 [Ex. 29] ; what pIC50 value has been reported?
Solution: 9.52

Problem: Suppose we examine the compound CCOc1nn([C@@H](C)CO)c2c1/C=C/c1n[nH]c3cnc(cc13)-c1c(C)nn(C)c1O[C@@H](C)[C@H]1CCCN1C2 [Ex. 56] ; what pIC50 value has been reported?
Solution: 9.01

Problem: Suppose we examine the compound CCOc1nn(CCO)c2c1/C=C/c1n[nH]c3cnc(cc13)-c1cnn(C)c1O[C@@H](C)CN(C(C)C)C2 [Ex. 11] ; what pIC50 value has been reported?
Solution: 9.37

Problem: Suppose we examine the compound Cc1nn(C)c2c1-c1cc3c(n[nH]c3cn1)/C=C/c1c(OCC#N)nn(CCO)c1CN(C)C[C@@H](C)O2 [Ex. 42] ; what pIC50 value has been reported?
Solution: 9.25

Problem: Suppose we examine the compound CCOc1nn(CCO)c2c1/C=C/c1n[nH]c3cnc(cc13)-c1c(C)nn(C)c1O[C@H](C)[C@H]1CCCN1C2 [Ex. 33] ; what pIC50 value has been reported?
Solution: 9.51
